biological target: human ether-à-go-go-related gene (hERG) potassium channel (human); test: primary screen, population patch clamp on CHO cells stably expressing hERG; higher = less effect of the substance;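 also: peak tail current of the secondary pulse compared with the same well before compound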
Sequence (Q12809 whole entry, looked up): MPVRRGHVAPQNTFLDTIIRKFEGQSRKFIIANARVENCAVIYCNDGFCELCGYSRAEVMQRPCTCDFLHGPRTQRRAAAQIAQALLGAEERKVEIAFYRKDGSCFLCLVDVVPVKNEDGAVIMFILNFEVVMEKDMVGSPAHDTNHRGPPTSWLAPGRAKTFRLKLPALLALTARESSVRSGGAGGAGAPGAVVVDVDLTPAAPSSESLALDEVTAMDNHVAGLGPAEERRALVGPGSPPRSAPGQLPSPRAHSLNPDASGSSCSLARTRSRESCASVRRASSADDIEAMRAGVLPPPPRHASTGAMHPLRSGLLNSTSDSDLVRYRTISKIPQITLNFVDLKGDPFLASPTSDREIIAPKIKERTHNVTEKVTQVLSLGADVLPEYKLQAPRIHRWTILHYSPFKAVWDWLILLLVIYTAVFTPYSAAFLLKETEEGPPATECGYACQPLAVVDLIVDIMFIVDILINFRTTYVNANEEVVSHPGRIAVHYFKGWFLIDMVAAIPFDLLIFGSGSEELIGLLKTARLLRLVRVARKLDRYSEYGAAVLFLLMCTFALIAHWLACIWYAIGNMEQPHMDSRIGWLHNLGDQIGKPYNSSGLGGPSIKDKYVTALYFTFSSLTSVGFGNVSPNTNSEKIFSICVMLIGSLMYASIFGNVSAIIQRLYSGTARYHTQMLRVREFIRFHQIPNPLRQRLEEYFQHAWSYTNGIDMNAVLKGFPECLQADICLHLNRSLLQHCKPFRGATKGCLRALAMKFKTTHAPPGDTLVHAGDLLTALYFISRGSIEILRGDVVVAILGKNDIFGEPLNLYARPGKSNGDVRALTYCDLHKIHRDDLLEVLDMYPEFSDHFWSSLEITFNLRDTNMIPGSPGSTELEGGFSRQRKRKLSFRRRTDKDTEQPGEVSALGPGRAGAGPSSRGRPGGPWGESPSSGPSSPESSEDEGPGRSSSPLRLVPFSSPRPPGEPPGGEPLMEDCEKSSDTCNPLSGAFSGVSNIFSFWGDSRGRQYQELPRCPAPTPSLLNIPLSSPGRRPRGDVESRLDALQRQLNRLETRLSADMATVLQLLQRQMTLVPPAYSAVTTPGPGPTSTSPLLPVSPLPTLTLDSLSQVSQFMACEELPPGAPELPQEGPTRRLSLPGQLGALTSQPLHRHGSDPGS
Among all 310,000 compounds or so, about 14,000 (4.5%) showed an effect of 50% or more. Effects have a minus sign here. The sample as a whole holds a higher share of strong results than the screen did.
observation-type: hERG current change (%, negative = inhibition) at 10uM (%)

INSERT INTO measurements (molecule, assay_system, display_unit, readout_value) VALUES
  ('COc1cc(NC2c3ncccc3C(=O)N2Cc2ccco2)cc(OC)c1 (stereo not drawn)', 'human ether-à-go-go-related gene (hERG) potassium channel (human)', '%', -0.0378),
  ('CC(Oc1ccc(F)cc1)C(=O)Nc1cc(S(=O)(=O)N2CCOCC2)ccc1N1CCCC1 (stereo not drawn)', 'human ether-à-go-go-related gene (hERG) potassium channel (human)', '%', 13.7),
  ('COCCN(Cc1cn(C)nc1-c1ccccc1F)C(C)C', 'human ether-à-go-go-related gene (hERG) potassium channel (human)', '%', 15.5),
  ('Br.CC(C)O.Cc1ccc(-c2csc(Nc3ccccc3)[n+]2CCc2ccccc2)cc1', 'human ether-à-go-go-related gene (hERG) potassium channel (human)', '%', 20.5),
  ('CCOc1ccc(-c2cc(C)[n+](CCN(CC)CC)c(-c3ccc(OCC)cc3)c2)cc1.[O-][Cl+3]([O-])([O-])[O-]', 'human ether-à-go-go-related gene (hERG) potassium channel (human)', '%', -79.3),
  ('CC1(C)C(=O)C=C[C@]2(C)[C@H]3CC[C@@]4(C)[C@H](c5ccoc5)OC(=O)[C@H]5O[C@]54[C@]3(C)[C@H](O)C[C@@H]12', 'human ether-à-go-go-related gene (hERG) potassium channel (human)', '%', 8.63),
  ('Cc1cc(C)c(S(=O)(=O)N2CCCOC2CNC(=O)C(=O)NCc2cccs2)c(C)c1 (stereo not drawn)', 'human ether-à-go-go-related gene (hERG) potassium channel (human)', '%', -8.31),
  ('CCOc1ccc(-c2cc(C)[n+](CCc3ccc(OC)c(OC)c3)c(-c3ccc(OCC)cc3)c2)cc1.[O-][Cl+3]([O-])([O-])[O-]', 'human ether-à-go-go-related gene (hERG) potassium channel (human)', '%', -83.1),
  ('COc1ccccc1CN(C)C(=O)c1ccccc1Sc1ccccc1C#N', 'human ether-à-go-go-related gene (hERG) potassium channel (human)', '%', -25),
  ('CCC(Oc1ccccc1)C(=O)NCCOC (stereo not drawn)', 'human ether-à-go-go-related gene (hERG) potassium channel (human)', '%', -8.48),
  ('CCOc1ccc(-c2nc(C)sc2CC(=O)O)cc1', 'human ether-à-go-go-related gene (hERG) potassium channel (human)', '%', 11),
  ('COc1ccc(C(=O)Nc2nnc(C)s2)cc1S(=O)(=O)N1CCOCC1', 'human ether-à-go-go-related gene (hERG) potassium channel (human)', '%', -14),
  ('O=C1CN(C(=O)CN2CCOCC2)C(c2ccccc2)c2cc(Br)ccc2N1 (stereo not drawn)', 'human ether-à-go-go-related gene (hERG) potassium channel (human)', '%', -32.3),
  ('Cc1ccc(S(=O)(=O)N(C)C)cc1NC(=O)CSc1nc2ccccc2[nH]1', 'human ether-à-go-go-related gene (hERG) potassium channel (human)', '%', -29.4),
  ('Cc1cccc(-c2nc3c(c(SCC(=O)N4CCOCC4)n2)Cc2c(CO)cnc(C)c2O3)c1', 'human ether-à-go-go-related gene (hERG) potassium channel (human)', '%', 5.78),
  ('CCC(CC)C(=O)N1CC(=O)Nc2ccc(F)cc2C1c1ccccc1 (stereo not drawn)', 'human ether-à-go-go-related gene (hERG) potassium channel (human)', '%', -11.4),
  ('COc1ccc(C(=O)Nc2ccccn2)cc1S(=O)(=O)N1CCOCC1', 'human ether-à-go-go-related gene (hERG) potassium channel (human)', '%', -8.04),
  ('O=C1CN(C(=O)CCN2CCOCC2)C(c2ccccc2)c2cc(Br)ccc2N1 (stereo not drawn)', 'human ether-à-go-go-related gene (hERG) potassium channel (human)', '%', -60.5),
  ('CC(=O)Nc1ccc(CN(C)CC2CCCN(CCc3cccc(C(F)(F)F)c3)C2)cc1 (stereo not drawn)', 'human ether-à-go-go-related gene (hERG) potassium channel (human)', '%', -68.4),
  ('COc1cc([N+](=O)[O-])c(C(=O)N2CCOCC2)c([N+](=O)[O-])c1', 'human ether-à-go-go-related gene (hERG) potassium channel (human)', '%', 7.66),
  ('O=C1CN(C(=O)CN2CCCCC2)C(c2ccccc2)c2cc(Br)ccc2N1 (stereo not drawn)', 'human ether-à-go-go-related gene (hERG) potassium channel (human)', '%', -66.5),
  ('Cc1ccc(S(=O)(=O)N(C)C)cc1NC(=O)COC(=O)c1ccc2c(c1)NC(=O)CS2', 'human ether-à-go-go-related gene (hERG) potassium channel (human)', '%', -32.5),
  ('COc1cc(CNCCCN2CCOCC2)cc(Br)c1OCc1ccc(Cl)cc1.Cl', 'human ether-à-go-go-related gene (hERG) potassium channel (human)', '%', -35.5),
  ('COc1cc(CNCCO)cc(Cl)c1OCc1ccc(Cl)cc1Cl.Cl', 'human ether-à-go-go-related gene (hERG) potassium channel (human)', '%', -7.34),
  ('COc1ccc(CCNc2cc(N3CCN(C(=O)c4ccc(C)cc4)CC3)ccc2[N+](=O)[O-])cc1OC', 'human ether-à-go-go-related gene (hERG) potassium channel (human)', '%', 8.2),
  ('COC(=O)CN1C(=O)Nc2ccc(Br)cc2C1c1ccccc1 (stereo not drawn)', 'human ether-à-go-go-related gene (hERG) potassium channel (human)', '%', -14.6),
  ('COc1cc(CNCCN2CCOCC2)ccc1OCc1ccc(Cl)cc1.Cl', 'human ether-à-go-go-related gene (hERG) potassium channel (human)', '%', -42.1),
  ('COc1cc(CNCCN2CCOCC2)ccc1OCc1ccc(Cl)cc1Cl.Cl', 'human ether-à-go-go-related gene (hERG) potassium channel (human)', '%', -69.7),
  ('Cc1cc(C)c(C)c(S(=O)(=O)NCCCN2CCOCC2)c1C', 'human ether-à-go-go-related gene (hERG) potassium channel (human)', '%', 13.6),
  ('CCC(CC)C(=O)N1CC(=O)Nc2ccc(Br)cc2C1c1ccccc1 (stereo not drawn)', 'human ether-à-go-go-related gene (hERG) potassium channel (human)', '%', -73.5);
